tested on: Human papillomavirus type 1a protein E7 (residues 44-93); assay: small molecules binding HPV E7 44-93 – biochemical, small-molecule microarray, residues 44-93, 635 nm fluorescence, primary screen (AID 1108); conditions: fluorescence 635 nm, higher = more signal;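 also: E7 fragment applied at 1 µg/mL in TBST for 1 h at 4 C; score combines spot fluorescence with its signal to noise ratio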

compound: NC(=O)NCC#Cc1ccc2c(c1)[C@]1(C(=O)N2)[C@H](c2ccc(O)cc2)N2[C@H](c3ccccc3)[C@H](c3ccccc3)OC(=O)[C@H]2[C@@H]1C(N)=O
composite z-score: -0.366

compound: CCCNC(=O)[C@@]1(Sc2ccc(C)cc2)CC(=O)N(Cc2ccccc2)[C@@H]1c1ccc(CO)cc1I
composite z-score: 1.17

compound: COCCOC(=O)N1C(=O)[C@@]2(c3cc(C#Cc4ccc(OC)cc4)ccc31)[C@H](C(=O)N1CCc3cc(OC)c(OC)cc3C1)[C@H]1C(=O)O[C@H](c3ccccc3)[C@H](c3ccccc3)N1[C@@H]2c1ccc(O)cc1
composite z-score: 1.13

compound: CC(C)C[C@@H]1NC(=O)[C@@H]2C[C@H](C(=O)NCCCC[N+](C)(C)C)[C@H](c3cccc(OCCO)c3)N2C1=O
composite z-score: -0.832

compound: C[C@H]1NC(=O)C([C@@H](C)OCc2ccccc2)NC(=O)[C@@]23C(=O)N[C@@H](Cc4ccccc4)C2[C@H](C)[C@@]2(C)O[C@H]2C3/C=C/CC/C=C/CNC1=O (stereo partly specified)
composite z-score: -0.165

compound: Cc1ccc(S[C@]2(C(=O)O)CC(=O)N(Cc3ccccc3C(F)(F)F)[C@@H]2c2ccc(CO)cc2)cc1
composite z-score: 0.973
